Reference source for all entries: the array DNA melting data of Ke et al.

experiment: melting temperature; melt of duplexes; conditions: sodium 0.0675 M; strand 1 µM
Tm by entry:
Reply with just the number (in °C).

[
  {
    "Substance": "CGACGTGCCCTATGTGCTG+CAGCACATACAGCACGTCG ((((((((..(((((((((+)))))))))..))))))))",
    "Tm / °C": 48.8
  }
]

In plain terms, CGACGTGCTTTATGTGCTG+CAGCACATATTGCACGTCG ((((((((..(((((((((+)))))))))..)))))))) has a documented Tm of 51.2

For record CGACGTGCCCCATGTGCTG+CAGCACATTGAGCACGTCG ((((((((.(.((((((((+)))))))).).)))))))) the listed Tm is 50.1

Notebook: CGACGTGCTTCATGTGCTG+CAGCACATTTGGCACGTCG ((((((((...((((((((+))))))))...)))))))) , Tm read as 48.6

Reported Tm ( CGACGTGCTTTATGTGCTG+CAGCACATCTTGCACGTCG ((((((((...((((((((+))))))))...)))))))) ) = 48.5

The substance identified as CGACGTGCTGAATGTGCTG+CAGCACATATCGCACGTCG ((((((((...((((((((+))))))))...)))))))) registered its Tm at 50.2

Tm reported for this substance CGACGTGCCCTATGTGCTG+CAGCACATGATGCACGTCG ((((((((...((((((((+))))))))...)))))))) : 48.6

* * *

assay: melting temperature; melt of duplexes; conditions: sodium 0.0675 M; strand 1 µM
Listing of entries alongside the reported Tm.
# number only, unit °C dropped from output

Below are worked cases with known answers.
[
  {
    "Substance": "CGACGTGCCACATGTGCTG+CAGCACATGGTGCACGTCG ((((((((..(((((((((+)))))))))..))))))))",
    "Attribute Measured": "Tm",
    "Reported": 53.2
  },
  {
    "Substance": "CGACGTGCTACATGTGCTG+CAGCACATGTAGCACGTCG (((((((((((((((((((+)))))))))))))))))))",
    "Attribute Measured": "Tm",
    "Reported": 63.6
  }
]

Moving on to another substance below.
Tm reading for CGACGTGCCTAATGTGCTG+CAGCACATGAGGCACGTCG ((((((((((.((((((((+)))))))).)))))))))) : 58.5

* * *

experiment: melting temperature; melt of duplexes; settings: sodium 0.0675 M; strand 1 µM
# maps each entry to its Tm
I only need the number, in °C, no unit after it.

[
  {
    "Substance": "CGACGTGCATCATGTGCTG+CAGCACATGGTGCACGTCG (((((((((.(((((((((+))))))))).)))))))))",
    "Readout Unit": "°C",
    "Reported": 60.1
  }
]

Field Tm (entry CGACGTGCCCTATGTGCTG+CAGCACATATAGCACGTCG ((((((((..(((((((((+)))))))))..)))))))) ) reads 49.6

Form field Tm, entry CGACGTGCGGAATGTGCTG+CAGCACATGTTGCACGTCG ((((((((...((((((((+))))))))...)))))))) : 52.8

* * *

# reported Tm; entries follow
assay: melting temperature; UV melt of duplexes; conditions: sodium 0.22 M; strand 2 µM

Record TGGATTCTACTCAACCTTAGTCTGG+CCAGACTAAGGTTGAGTAGAATCCA (((((((((((((((((((((((((+))))))))))))))))))))))))) , field Tm: 67.1 °C

The substance listed as CGTACTAGCGTTGGTCATGG+CCATGACCAACGCTAGTACG ((((((((((((((((((((+)))))))))))))))))))) shows Tm equal to 66.6 °C

Field Tm (entry CGGAATCCATGTTACTTCGGCTATC+GATAGCCGAAGTAACATGGATTCCG (((((((((((((((((((((((((+))))))))))))))))))))))))) ) reads 68.7 °C

The measured Tm associated with TTATGTATTAAGTTATATAGTAGTAGTAGT+ACTACTACTACTATATAACTTAATACATAA ((((((((((((((((((((((((((((((+)))))))))))))))))))))))))))))) reads 59.3 °C

Measured Tm, CAGCCTCGTTCGCACAGCCC+GGGCTGTGCGAACGAGGCTG ((((((((((((((((((((+)))))))))))))))))))) : 74 °C

Measured Tm of GACCTGACGTGGACCGCTCCTGGGCGTGGT+ACCACGCCCAGGAGCGGTCCACGTCAGGTC ((((((((((((((((((((((((((((((+)))))))))))))))))))))))))))))) : 81.5 °C

Summary for this substance, TACTTCCAGTGCTCAGCGTA+TACGCTGAGCACTGGAAGTA ((((((((((((((((((((+)))))))))))))))))))) : Tm is 67.7 °C

* * *

assay: melting temperature; melt of duplexes; details: sodium 0.0675 M; strand 1 µM
Attribute Measured: Tm (°C)
Record the value in °C, omitting the unit from your answer.

These recorded examples may help you get a feel for the data.
[
  {
    "Substance": "CGACGTGCGTTATGTGCTG+CAGCACATCCTGCACGTCG ((((((((...((((((((+))))))))...))))))))",
    "Readout Unit": "°C",
    "Tm": 49.2
  },
  {
    "Substance": "CGACGTGCAATATGTGCTG+CAGCACATCAGGCACGTCG ((((((((...((((((((+))))))))...))))))))",
    "Readout Unit": "°C",
    "Tm": 48.7
  },
  {
    "Substance": "CGACGTGCTGGATGTGCTG+CAGCACATATTGCACGTCG ((((((((...((((((((+))))))))...))))))))",
    "Readout Unit": "°C",
    "Tm": 50.9
  }
]

Moving on to another substance below.
Given item CGACGTGCGTTATGTGCTG+CAGCACATTCTGCACGTCG ((((((((...((((((((+))))))))...)))))))) , the value recorded as its Tm is 50

* * *

test: melting temperature; melt of duplexes; conditions: sodium 0.0675 M; strand 1 µM
Attribute Measured: Tm (°C)
Report the value in °C with no unit label.

Sample records with Tm:
[
  {
    "Substance": "CGACGTGCCCGATGTGCTG+CAGCACATAAGGCACGTCG (((((((((..((((((((+))))))))..)))))))))",
    "Attribute Measured": "Tm",
    "Reported": 54.5
  },
  {
    "Substance": "CGACGTGCGGTATGTGCTG+CAGCACATATTGCACGTCG ((((((((..(((((((((+)))))))))..))))))))",
    "Attribute Measured": "Tm",
    "Reported": 55
  },
  {
    "Substance": "CGACGTGCATTATGTGCTG+CAGCACATAACGCACGTCG ((((((((.((((((((((+)))))))))).))))))))",
    "Attribute Measured": "Tm",
    "Reported": 53.8
  },
  {
    "Substance": "CGACGTGCCTGATGTGCTG+CAGCACATTTAGCACGTCG ((((((((...((((((((+))))))))...))))))))",
    "Attribute Measured": "Tm",
    "Reported": 49.6
  },
  {
    "Substance": "CGACGTGCCAAATGTGCTG+CAGCACATGGGGCACGTCG (((((((((..((((((((+))))))))..)))))))))",
    "Attribute Measured": "Tm",
    "Reported": 56.6
  }
]

Recorded Tm (substance CGACGTGCTACATGTGCTG+CAGCACATTTGGCACGTCG ((((((((.(.((((((((+)))))))).).)))))))) ): 51.1

The reported value for CGACGTGCTAAATGTGCTG+CAGCACATGCAGCACGTCG (((((((((..((((((((+))))))))..))))))))) in terms of Tm is 55.2

* * *

assay: melting temperature; melt of duplexes; details: sodium 0.0675 M; strand 1 µM
Catalogue of Tm readings, one per entry.
Value expressed in °C; do not type the unit.

Record summary for CGACGTGCTTGATGTGCTG+CAGCACATACTGCACGTCG ((((((((...((((((((+))))))))...)))))))) : reported Tm = 50.4

get_value(item= CGACGTGCTCGATGTGCTG+CAGCACATCGCGCACGTCG ((((((((.((((((((((+)))))))))).)))))))) , readout=Tm) returns 59.6

The substance identified as CGACGTGCATCATGTGCTG+CAGCACATTCCGCACGTCG ((((((((...((((((((+))))))))...)))))))) registered its Tm at 46.6

CGACGTGCCATATGTGCTG+CAGCACATACTGCACGTCG ((((((((..(((((((((+)))))))))..)))))))) has a reported Tm of 49.3

get_value(item= CGACGTGCTTAATGTGCTG+CAGCACATCCGGCACGTCG ((((((((...((((((((+))))))))...)))))))) , readout=Tm) returns 49

Lab book: Tm of CGACGTGCCTCATGTGCTG+CAGCACATGCAGCACGTCG ((((((((..(((((((((+)))))))))..)))))))) noted as 52.8

For reference, reported Tm for CGACGTGCGCCATGTGCTG+CAGCACATTGCGCACGTCG ((((((((((.((((((((+)))))))).)))))))))) stands at 59.3

Item: CGACGTGCGACATGTGCTG+CAGCACATGGAGCACGTCG ((((((((..(((((((((+)))))))))..)))))))) | Tm: 63.5
